The measurements presented in this section are drawn from patent US20120214862A1.

Tested on: human Factor 7 mRNA
assayExplanation: Antisense inhibition of human Factor 7 mRNA in HepB3 cells, lipofectin, 50 nM, real-time RT-PCR
Assay type: cell-based
conditionContext: HepB3 cells, lipofectin, 50 nM antisense oligonucleotide, approximately 24 hours, primer probe set RTS 2927, relative to untreated control
In the oligonucleotide strings, read from the 5' end, every base follows the letter of its sugar. An asterisk marks phosphorothioate; unmarked linkages are phosphodiester. Other units and linkages are bracketed, terminal groups are in braces. A string of capitals states the bases alone. e = 2'-O-(2-methoxyethyl) (MOE); [5mC] = 5-methylcytosine; d = 2'-deoxy (DNA)
measurementLabel: % Inhibition of human Factor 7 mRNA levels (%)

1. 416422 (antisense eA*eG*e[5mC]*eG*eA*d[5mC]*d[5mC]*d[5mC]*d[5mC]*dG*d[5mC]*d[5mC]*dT*dG*d[5mC]*eA*eG*e[5mC]*e[5mC]*eA) [compound 416422] : 8
2. 416544 (antisense eA*eT*e[5mC]*e[5mC]*e[5mC]*dA*dT*dT*dT*dT*d[5mC]*d[5mC]*d[5mC]*dA*dG*eG*eA*eG*e[5mC]*e[5mC]) [compound 416544] : 58
3. 416505 (antisense eG*e[5mC]*eA*eG*eA*dT*dT*dT*dG*d[5mC]*dA*dT*d[5mC]*dA*dG*eA*eA*eA*eA*eG) [compound 416505] : 45
4. 416487 (antisense eG*e[5mC]*eA*eG*eG*dT*dG*d[5mC]*dT*d[5mC]*d[5mC]*d[5mC]*dA*dG*dG*eG*eT*e[5mC]*eT*e[5mC]) [compound 416487] : 39
5. 416454 (antisense e[5mC]*eG*eT*eG*e[5mC]*dT*d[5mC]*dG*d[5mC]*d[5mC]*d[5mC]*dA*dG*d[5mC]*dA*e[5mC]*e[5mC]*eG*e[5mC]*eG) [compound 416454] : 56
6. 416455 (antisense e[5mC]*eG*e[5mC]*e[5mC]*eG*dG*d[5mC]*dT*d[5mC]*dT*dG*d[5mC]*dT*d[5mC]*dA*eT*e[5mC]*e[5mC]*e[5mC]*e[5mC]) [compound 416455] : 72
7. 416528 (antisense eT*eG*eA*eT*eA*dA*dA*dA*d[5mC]*d[5mC]*dT*d[5mC]*dT*dG*dG*eA*e[5mC]*eA*e[5mC]*e[5mC]) [compound 416528] : 10
8. 416531 (antisense eA*eG*eA*eT*eG*dA*d[5mC]*d[5mC]*dA*dG*d[5mC]*dA*dG*dG*dA*eA*eG*e[5mC]*e[5mC]*eT) [compound 416531] : 19

----------
System: human Factor 7 mRNA
assayExplanation: Dose-dependent antisense inhibition of human Factor 7 in HepB3 cells, transfection with electroporation
Assay type: cell-based
conditionContext: 100 μM, 16 hours (Example 7, Table 15)
In the oligonucleotide strings, read from the 5' end, every base follows the letter of its sugar. An asterisk marks phosphorothioate; unmarked linkages are phosphodiester. Other units and linkages are bracketed, terminal groups are in braces. A string of capitals states the bases alone. e = 2'-O-(2-methoxyethyl) (MOE); [5mC] = 5-methylcytosine; d = 2'-deoxy (DNA)
Output true for percent inhibition of Factor 7 mRNA, relative to untreated control cells not less than 80%; output false otherwise.

1) 422229 (antisense eA*eT*dG*d[5mC]*dA*dT*dG*dG*dT*dG*dA*dT*dG*d[5mC]*dT*eT*e[5mC]*eT*eG*eA) [compound 422229] : false
2) 422177 (antisense e[5mC]*e[5mC]*e[5mC]*dG*d[5mC]*d[5mC]*dG*dG*d[5mC]*dT*d[5mC]*dT*dG*d[5mC]*dT*d[5mC]*dA*eT*e[5mC]*e[5mC]) [compound 422177] : false
3) 422140 (antisense eG*eT*eT*e[5mC]*eT*dG*d[5mC]*dA*dG*dG*dA*dG*d[5mC]*dG*dG*e[5mC]*e[5mC]*eT*eA*eA) [compound 422140] : false
4) 422096 (antisense eA*eG*eA*e[5mC]*eA*dA*dT*dG*dG*dT*d[5mC]*dA*dG*dG*dG*e[5mC]*eT*eG*eG*eT) [compound 422096] : true
5) 422215 (antisense eG*eT*eT*d[5mC]*dT*dG*d[5mC]*dA*dG*dG*dA*dG*d[5mC]*dG*dG*d[5mC]*d[5mC]*eT*eA*eA) [compound 422215] : true
6) 422152 (antisense eA*eT*eG*d[5mC]*dA*dT*dG*dG*dT*dG*dA*dT*dG*d[5mC]*dT*dT*d[5mC]*eT*eG*eA) [compound 422152] : false
7) 422086 (antisense eT*eG*e[5mC]*eA*eT*dG*dG*dT*dG*dA*dT*dG*d[5mC]*dT*dT*e[5mC]*eT*eG*eA*eA) [compound 422086] : true
8) 422130 (antisense eG*e[5mC]*e[5mC]*eT*eG*dA*dG*dG*d[5mC]*d[5mC]*dA*dG*d[5mC]*dA*dG*eA*eT*e[5mC]*eA*e[5mC]) [compound 422130] : true
